- Measurement Protocol: Rm from reversed phase partition chromatography (lipophilic-hydrophilic balance)
Quantity: chromatographic logP

Solved cases (5 shown):
• CNc1cc(NS(C)(=O)=O)ccc1Nc1c2ccccc2nc2cc(Cl)ccc12 = 0.36
• CNc1ccc2c(Nc3ccc(NS(C)(=O)=O)cc3NC)c3ccccc3nc2c1 = 0.18
• CNc1cc(NS(C)(=O)=O)ccc1Nc1c2ccccc2nc2cc(NC(=O)OC)ccc12 = 0.13
• CNc1cc(NC(=O)OC)ccc1Nc1c2ccc(Br)cc2nc2c(C)cccc12 = 0.69
• CNc1cc(NC(=O)OC)ccc1Nc1c2ccccc2nc2cc(F)ccc12 = 0.63

(I) CNc1cc(NC(=O)OC)ccc1Nc1c2ccccc2nc2cc(Cl)ccc12
(II) Nc1ccc(S(=O)(=O)Nc2ccc(Nc3c4ccccc4nc4ccccc34)c(NCCO)c2)cc1
(III) CNc1cc(NS(C)(=O)=O)ccc1Nc1c2ccc(C)cc2nc2c(C)cccc12
Arrange the 3 entries by chromatographic logP so the values rise. Quick reminder: the answer is the labels in the order asked.
II, III, I
